Where these numbers come from: patent US8362000B2

target: MGL (Rattus norvegicus, UniProt Q8R431); construct: one g rat brain was homogenized using a Polytron homogenizer; from tissue; host or cells: rat brain homogenate; experiment: 2-AG accumulation assay in rat brain homogenate; assay type: biochemical; conditions: rat brain homogenate; compound 1 μM; 2-AG accumulation as percent of vehicle; read-out: Rat Brain 2AG % VehCntrl (%) @ 1 μM
Sequence (Q8R431 whole entry): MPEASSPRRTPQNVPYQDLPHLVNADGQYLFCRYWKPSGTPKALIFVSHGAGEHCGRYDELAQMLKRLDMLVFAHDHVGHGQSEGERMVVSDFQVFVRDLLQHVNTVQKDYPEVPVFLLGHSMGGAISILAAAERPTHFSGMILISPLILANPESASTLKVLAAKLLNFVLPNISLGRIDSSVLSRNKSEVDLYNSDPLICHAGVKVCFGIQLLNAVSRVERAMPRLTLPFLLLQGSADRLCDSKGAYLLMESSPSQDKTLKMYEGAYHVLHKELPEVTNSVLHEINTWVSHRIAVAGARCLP
measurementType: 2-AG accumulation, % of vehicle control at 1 µM (%)

chemicalSmiles	unitSymbol	numericValue
Cn1cc(-c2ccc(C(F)(F)F)cc2)c2ccc(C(=O)N3CC(N4CCN(C(=O)c5cscn5)CC4)C3)cc21	%	344
O=C(c1cc[nH]c1)N1CC(N2CCN(C(=O)c3cc4cc(C(F)(F)F)ccc4s3)CC2)C1	%	182
O=C(c1ccc(Oc2cc(C(F)(F)F)ccc2F)nc1)N1CC(N2CCN(C(=O)c3nccs3)CC2)C1	%	288
O=C(c1nccs1)N1CCN(C2CN(C(=O)c3cccc4nc(-c5ccccc5)oc34)C2)CC1	%	558
Cc1cc(-c2cccc(C(F)(F)F)c2)ccc1C(=O)N1CC(N2CCN(C(=O)c3cscn3)CC2)C1	%	538
Cn1nc(-c2ccccc2)c2cc(C(=O)N3CC(N4CCN(C(=O)c5nccs5)CC4)C3)ccc21	%	582
O=C(c1ccccc1)N1CCN(C2CN(C(=O)c3ccc(-c4ccc(Cl)c(C(F)(F)F)c4)cc3Cl)C2)CC1	%	110
O=C(c1ccc2c(c1)CCCN2C(=O)c1cccc(C(F)(F)F)c1)N1CC(N2CCN(C(=O)c3nccs3)CC2)C1	%	556
O=C(c1ccc(Sc2cccc(C(F)(F)F)c2)cc1)N1CC(N2CCN(C(=O)c3cscn3)CC2)C1	%	321
Cc1c(C(=O)N2CCN(C3CN(C(=O)c4cscn4)C3)CC2)sc2cc(C(F)(F)F)ccc12	%	487

P. Cc1sc(C(=O)N2CC(N3CCN(C(=O)c4nccs4)CC3)C2)cc1-c1cccc(C(F)(F)F)c1
Q. O=C(c1ccc(-c2ccc(C(F)(F)F)s2)cc1)N1CC(N2CCN(C(=O)c3ccc[nH]3)CC2)C1
// pick larger 2-AG accumulation, % of vehicle control at 1 µM from pair: P vs Q Respond using the label that marks the chosen record. P

I. Cc1sc(C(=O)N2CC(N3CCN(C(=O)c4nccs4)CC3)C2)cc1-c1cccc(F)c1
II. O=C(c1ccccc1)N1CCN(C2CN(C(=O)c3ccc(Oc4cc(C(F)(F)F)ccn4)cc3)C2)CC1
Pick one: I or II . Which has the bigger 2-AG accumulation, % of vehicle control at 1 µM number? Use the label to indicate which entry you chose. I

1. O=C(c1ccc(SCc2cccc(C(F)(F)F)c2)cc1)N1CC(N2CCN(C(=O)c3nccs3)CC2)C1
2. N#Cc1ccccc1-n1ccc2cc(C(=O)N3CC(N4CCN(C(=O)c5cscn5)CC4)C3)ccc21
Between 1 and 2 , whose recorded 2-AG accumulation, % of vehicle control at 1 µM is greater? Write the label of whichever entry you select. 1
